# tested-system: recombinant RSV L+P (Human respiratory syncytial virus A)
# protocol-text: Primed single nucleotide incorporation (SNI) gel assay, recombinant RSV L+P
# Assay type: biochemical, Human RSV (strain A2)
# measurement-setup: le-11 and tr-14 templates, +1 and +3 site; read-out: IC50 values in the SNI assays
pIC50: −log10 of the molar value.
quantity: pIC50

Exam item: Suppose we examine the compound COc1cc(C(=O)NC[C@](O)(c2cc(C(C)(C)O)c(F)c(-c3ccc(F)cc3)n2)C(F)(F)F)cc2cc(C)nnc12 ; what pIC50 value has been reported?
Marked response: 7.49 to 7.77

* * *

# protocol-text: in vitro
# measurement-setup: human
quantity: CC50 at 3 days (µM)
One number for each entry, in µM.

Exam item: Suppose we examine the compound COc1cc(C(=O)NC[C@](O)(c2cc(C(C)(C)O)c(F)c(-c3ccc(F)cc3)n2)C(F)(F)F)cc2cc(C)nnc12 ; what CC50 at 3 days value has been reported?
Marked response: 27

* * *

# tested-system: RSV L+P RdRp (Human respiratory syncytial virus A, UniProt P28887)
# Sequence (P03421 whole entry): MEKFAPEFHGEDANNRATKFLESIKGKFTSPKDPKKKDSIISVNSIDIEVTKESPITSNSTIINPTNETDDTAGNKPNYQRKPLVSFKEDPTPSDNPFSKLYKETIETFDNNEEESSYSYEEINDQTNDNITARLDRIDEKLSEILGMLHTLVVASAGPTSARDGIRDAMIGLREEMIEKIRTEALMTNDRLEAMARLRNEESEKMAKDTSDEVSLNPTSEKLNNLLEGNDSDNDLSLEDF
# Sequence (P28887 whole entry): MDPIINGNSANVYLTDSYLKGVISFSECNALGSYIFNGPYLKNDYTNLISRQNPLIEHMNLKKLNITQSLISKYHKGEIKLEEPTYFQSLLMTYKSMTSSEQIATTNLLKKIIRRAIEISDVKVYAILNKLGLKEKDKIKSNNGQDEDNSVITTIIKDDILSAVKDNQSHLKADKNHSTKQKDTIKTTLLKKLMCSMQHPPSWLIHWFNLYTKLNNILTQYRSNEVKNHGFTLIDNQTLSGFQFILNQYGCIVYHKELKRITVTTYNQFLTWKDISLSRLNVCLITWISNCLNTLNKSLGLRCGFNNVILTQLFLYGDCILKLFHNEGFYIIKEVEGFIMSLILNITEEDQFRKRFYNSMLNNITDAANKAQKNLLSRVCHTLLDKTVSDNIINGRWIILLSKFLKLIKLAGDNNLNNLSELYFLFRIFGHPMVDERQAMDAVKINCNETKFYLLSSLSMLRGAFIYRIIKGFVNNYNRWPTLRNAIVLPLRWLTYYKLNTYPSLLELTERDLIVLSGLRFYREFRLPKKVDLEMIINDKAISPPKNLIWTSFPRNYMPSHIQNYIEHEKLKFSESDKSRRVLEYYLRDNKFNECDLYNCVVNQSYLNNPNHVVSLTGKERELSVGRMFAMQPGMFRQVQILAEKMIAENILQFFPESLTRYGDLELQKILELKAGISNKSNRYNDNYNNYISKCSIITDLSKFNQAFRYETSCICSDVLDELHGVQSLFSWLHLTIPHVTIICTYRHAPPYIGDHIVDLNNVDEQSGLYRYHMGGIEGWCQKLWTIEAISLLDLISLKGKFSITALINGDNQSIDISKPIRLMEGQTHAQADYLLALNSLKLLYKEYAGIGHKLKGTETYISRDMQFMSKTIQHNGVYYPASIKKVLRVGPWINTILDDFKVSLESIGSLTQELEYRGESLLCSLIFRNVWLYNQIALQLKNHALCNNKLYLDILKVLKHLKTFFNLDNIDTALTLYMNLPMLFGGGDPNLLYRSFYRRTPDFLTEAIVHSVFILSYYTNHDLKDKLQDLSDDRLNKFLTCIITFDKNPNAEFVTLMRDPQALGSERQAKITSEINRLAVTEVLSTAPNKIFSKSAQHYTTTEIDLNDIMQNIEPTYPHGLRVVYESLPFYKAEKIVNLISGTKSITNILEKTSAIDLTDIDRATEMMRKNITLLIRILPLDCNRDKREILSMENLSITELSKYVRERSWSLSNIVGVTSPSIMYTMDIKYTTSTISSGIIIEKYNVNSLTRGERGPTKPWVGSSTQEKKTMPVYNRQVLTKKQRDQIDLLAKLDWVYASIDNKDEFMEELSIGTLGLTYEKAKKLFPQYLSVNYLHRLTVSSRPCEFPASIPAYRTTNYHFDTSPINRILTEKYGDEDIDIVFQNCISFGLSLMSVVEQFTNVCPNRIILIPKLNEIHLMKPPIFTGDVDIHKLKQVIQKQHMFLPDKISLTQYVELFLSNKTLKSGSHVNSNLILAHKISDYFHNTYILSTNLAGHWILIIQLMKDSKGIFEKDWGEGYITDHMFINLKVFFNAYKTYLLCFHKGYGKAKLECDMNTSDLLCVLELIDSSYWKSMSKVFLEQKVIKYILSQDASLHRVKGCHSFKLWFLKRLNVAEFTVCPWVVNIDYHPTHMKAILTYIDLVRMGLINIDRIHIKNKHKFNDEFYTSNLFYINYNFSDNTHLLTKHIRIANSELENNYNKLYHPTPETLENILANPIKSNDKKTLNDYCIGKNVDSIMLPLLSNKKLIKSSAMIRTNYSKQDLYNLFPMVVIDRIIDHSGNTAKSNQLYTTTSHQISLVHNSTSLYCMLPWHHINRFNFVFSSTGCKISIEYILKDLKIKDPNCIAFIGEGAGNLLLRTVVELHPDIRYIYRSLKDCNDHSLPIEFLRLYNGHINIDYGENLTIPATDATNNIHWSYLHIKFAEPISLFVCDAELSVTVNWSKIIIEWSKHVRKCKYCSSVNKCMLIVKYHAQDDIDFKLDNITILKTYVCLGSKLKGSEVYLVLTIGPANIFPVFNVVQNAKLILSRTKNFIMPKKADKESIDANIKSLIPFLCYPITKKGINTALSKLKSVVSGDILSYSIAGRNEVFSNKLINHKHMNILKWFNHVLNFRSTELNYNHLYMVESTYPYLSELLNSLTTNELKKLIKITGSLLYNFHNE
# protocol-text: Biotinylated primer extension Flashplate assay, recombinant RSV L+P
# Format: biochemical, Human RSV (strain A2)
# measurement-setup: RSV L+P RdRp primer extension, n 18; read-out: Median IC50
quantity: pIC50
Give bare numbers, as −log10 of the molar value.

Exam item: Suppose we examine the molecule COc1cc(C(=O)NC[C@](O)(c2cc(C(C)(C)O)c(F)c(-c3ccc(F)cc3)n2)C(F)(F)F)cc2cc(C)nnc12 ; what pIC50 value has been reported?
Marked response: 9.14

* * *

# protocol-text: in vitro
# measurement-setup: rhesus monkey, Median CC50, LLC-MK2, parallel to PIV-1 assay
quantity: CC50 (µM)
Answers are plain numbers, in µM.

Exam item: Suppose we examine the molecule COc1cc(C(=O)NC[C@](O)(c2cc(C(C)(C)O)c(F)c(-c3ccc(F)cc3)n2)C(F)(F)F)cc2cc(C)nnc12 ; what CC50 value has been reported?
Marked response: 18

* * *

# tested-system: Human RNA polymerase II (Homo sapiens, UniProt P24928+P30876)
# protocol-text: RNA polymerase II DdRp activity (HeLa nuclear extract)
# measurement-setup: RNA Pol II
pIC50: −log10 of the molar value.
quantity: pIC50

Exam item: Suppose we examine the molecule COc1cc(C(=O)NC[C@](O)(c2cc(C(C)(C)O)c(F)c(-c3ccc(F)cc3)n2)C(F)(F)F)cc2cc(C)nnc12 ; what pIC50 value has been reported?
Marked response: < 4.00

* * *

# tested-system: human mitochondrial RNA polymerase (POLRMT) (Homo sapiens)
# Sequence (O00411 42-1230): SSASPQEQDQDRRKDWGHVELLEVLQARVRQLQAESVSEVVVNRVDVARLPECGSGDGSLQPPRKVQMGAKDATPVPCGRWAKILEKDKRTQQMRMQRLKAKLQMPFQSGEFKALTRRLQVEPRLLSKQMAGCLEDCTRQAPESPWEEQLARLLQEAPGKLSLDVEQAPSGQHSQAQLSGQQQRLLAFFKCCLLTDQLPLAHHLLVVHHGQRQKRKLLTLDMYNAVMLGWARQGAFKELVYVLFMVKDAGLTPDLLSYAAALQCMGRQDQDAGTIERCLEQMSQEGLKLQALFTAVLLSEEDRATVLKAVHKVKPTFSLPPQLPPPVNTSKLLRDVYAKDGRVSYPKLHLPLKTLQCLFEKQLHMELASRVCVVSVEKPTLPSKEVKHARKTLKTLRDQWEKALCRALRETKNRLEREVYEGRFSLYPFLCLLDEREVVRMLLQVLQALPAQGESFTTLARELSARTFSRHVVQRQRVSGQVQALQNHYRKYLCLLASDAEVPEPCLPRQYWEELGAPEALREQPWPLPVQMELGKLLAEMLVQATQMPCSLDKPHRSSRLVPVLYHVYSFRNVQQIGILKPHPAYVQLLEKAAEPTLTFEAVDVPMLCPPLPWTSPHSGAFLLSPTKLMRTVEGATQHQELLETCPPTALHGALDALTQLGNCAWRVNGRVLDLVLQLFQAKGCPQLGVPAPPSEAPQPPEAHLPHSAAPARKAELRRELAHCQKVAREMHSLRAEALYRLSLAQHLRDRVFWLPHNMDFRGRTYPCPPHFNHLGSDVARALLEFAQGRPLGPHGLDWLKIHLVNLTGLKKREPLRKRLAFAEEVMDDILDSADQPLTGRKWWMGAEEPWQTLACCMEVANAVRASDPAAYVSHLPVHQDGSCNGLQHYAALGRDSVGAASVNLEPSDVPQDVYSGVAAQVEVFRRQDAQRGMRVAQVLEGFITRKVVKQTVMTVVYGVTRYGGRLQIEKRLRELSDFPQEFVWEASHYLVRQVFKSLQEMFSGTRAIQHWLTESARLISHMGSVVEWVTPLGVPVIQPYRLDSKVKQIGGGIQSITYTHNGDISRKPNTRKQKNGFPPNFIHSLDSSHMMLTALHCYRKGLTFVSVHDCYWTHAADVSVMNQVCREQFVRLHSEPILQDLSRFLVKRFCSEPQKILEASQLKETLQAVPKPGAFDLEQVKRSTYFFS
pIC50: −log10 of the molar value.
quantity: pIC50

Exam item: Suppose we examine the compound COc1cc(C(=O)NC[C@](O)(c2cc(C(C)(C)O)c(F)c(-c3ccc(F)cc3)n2)C(F)(F)F)cc2cc(C)nnc12 ; what pIC50 value has been reported?
Marked response: < 4.00

* * *

# Tested on: rgRSV224 (RSV A2 reporter virus)
# protocol-text: Inhibition of rgRSV224 reporter RSV in HeLa cells (GFP)
# measurement-setup: human respiratory syncytial virus, 72 h, read-out: Median EC50
quantity: EC50 (nM)
Give bare numbers, in nM.

Exam item: Suppose we examine the molecule COc1cc(C(=O)NC[C@](O)(c2cc(C(C)(C)O)c(F)c(-c3ccc(F)cc3)n2)C(F)(F)F)cc2cc(C)nnc12 ; what EC50 value has been reported?
Marked response: 0.78
